Test system: WHIM30 (cells of a triple-negative basal-like breast cancer xenograft)
Test: cell viability of combination (% of vehicle); higher = less cytotoxic
Conditions: 1 µM; 72 h; partner dose: 10 nM
measurementLabel: cell viability of combination
The answer should be a number; do not append a unit.

CCOC(=O)C1=C(COCCN)NC(C)=C(C(=O)OC)C1c1ccccc1Cl.O=S(=O)(O)c1ccccc1 (configuration not stated) [Amlodipine Besylate] + CC(C)C[C@H](NC(=O)[C@H](CCc1ccccc1)NC(=O)CN1CCOCC1)C(=O)N[C@@H](Cc1ccccc1)C(=O)N[C@@H](CC(C)C)C(=O)[C@@]1(C)CO1: 16.5
CCC(=C(c1ccccc1)c1ccc(OCCN(C)C)cc1)c1ccccc1.O=C(O)CC(O)(CC(=O)O)C(=O)O [Tamoxifen Citrate] + CC(C)C[C@H](NC(=O)[C@H](CCc1ccccc1)NC(=O)CN1CCOCC1)C(=O)N[C@@H](Cc1ccccc1)C(=O)N[C@@H](CC(C)C)C(=O)[C@@]1(C)CO1: 23.8
COc1cc(C(=O)NS(=O)(=O)c2ccccc2C)ccc1Cc1cn(C)c2ccc(NC(=O)OC3CCCC3)cc12 [Zafirlukast] + CC(C)C[C@H](NC(=O)[C@H](CCc1ccccc1)NC(=O)CN1CCOCC1)C(=O)N[C@@H](Cc1ccccc1)C(=O)N[C@@H](CC(C)C)C(=O)[C@@]1(C)CO1: 17.9
Cc1c(-c2ccc(O)cc2)n(Cc2ccc(OCCN3CCCCCC3)cc2)c2ccc(O)cc12.Cl [Bazedoxifene HCl] + CC(C)C[C@H](NC(=O)[C@H](CCc1ccccc1)NC(=O)CN1CCOCC1)C(=O)N[C@@H](Cc1ccccc1)C(=O)N[C@@H](CC(C)C)C(=O)[C@@]1(C)CO1: 11.3
Cc1nc(NC(=O)N2CCCC2C(N)=O)sc1-c1ccnc(C(C)(C)C(F)(F)F)c1 (configuration not stated) + CC(C)C[C@H](NC(=O)[C@H](CCc1ccccc1)NC(=O)CN1CCOCC1)C(=O)N[C@@H](Cc1ccccc1)C(=O)N[C@@H](CC(C)C)C(=O)[C@@]1(C)CO1: 20

Look up cell viability of combination for this molecule: COc1ccc2cc1Oc1ccc(cc1)CC1c3c(cc4c(c3Oc3cc5c(cc3OC)CCN(C)C5C2)OCO4)CCN1C (configuration not stated) [Cepharanthine] + CC(C)C[C@H](NC(=O)[C@H](CCc1ccccc1)NC(=O)CN1CCOCC1)C(=O)N[C@@H](Cc1ccccc1)C(=O)N[C@@H](CC(C)C)C(=O)[C@@]1(C)CO1 9.41

For the molecule shown here, C=CC(=O)N1CCC(Oc2cc3c(Nc4ccc(Cl)c(Cl)c4F)ncnc3cc2OC)CC1 [Poziotinib] + CC(C)C[C@H](NC(=O)[C@H](CCc1ccccc1)NC(=O)CN1CCOCC1)C(=O)N[C@@H](Cc1ccccc1)C(=O)N[C@@H](CC(C)C)C(=O)[C@@]1(C)CO1 , give the reported cell viability of combination. 8.92
